read-out: Interferon-gamma inducible Protein 10 (IP10), CXCL10 (gene 3627); experiment: BSK_BE3C_IP10: BioMAP Diversity Plus: BE3C Assay for Interferon-gamma inducible Protein 10 (IP10) Biomarker Activity (AID 2283034); conditions: primary human bronchial epithelial cells; actives raise or lower the signal
Active and inactive are the calls of the source. Rule for the calls: active = hit-call score of the fitted dose curve at least 0.9, where 1 is the maximum; inactive = score below 0.9.
metric: AC50

c1nc[nH]n1 :: inactive
CCC1(c2ccccc2)C(=O)N=C(O)NC1=O (configuration not stated) :: inactive
COP(=O)(O)OC :: inactive
CC(Cc1ccc(OCC(=O)O)cc1)NCC(O)c1csc(C(F)(F)F)n1 (configuration not stated) :: inactive
ClC(Cl)(Cl)c1ccccc1 :: inactive
O=C(O)C1C(C(=O)O)C2(Cl)C(Cl)=C(Cl)C1(Cl)C2(Cl)Cl (configuration not stated) :: inactive
CCOP(=S)(OCC)SCSc1ccc(Cl)cc1 :: inactive
[N-]=[N+]=[N-] :: inactive

Q: Entry c1ccc2c(c1)sc1ccccc12 has what AC50?
A: inactive

Q: For the molecule CCOS(=O)(=O)OCC , what AC50 is on record?
A: inactive

Q: Given the entry CCCCOCCOP(=O)(OCCOCCCC)OCCOCCCC , report its measured AC50.
A: inactive
